Where these numbers come from: patent US5017723A

Recorded measurements of IC50, one per entry
studyTarget: opiated delta receptor (Cavia porcellus)
Construct: membranous receptors of a guinea pig
Sequence (A0A286XTF2 1-366): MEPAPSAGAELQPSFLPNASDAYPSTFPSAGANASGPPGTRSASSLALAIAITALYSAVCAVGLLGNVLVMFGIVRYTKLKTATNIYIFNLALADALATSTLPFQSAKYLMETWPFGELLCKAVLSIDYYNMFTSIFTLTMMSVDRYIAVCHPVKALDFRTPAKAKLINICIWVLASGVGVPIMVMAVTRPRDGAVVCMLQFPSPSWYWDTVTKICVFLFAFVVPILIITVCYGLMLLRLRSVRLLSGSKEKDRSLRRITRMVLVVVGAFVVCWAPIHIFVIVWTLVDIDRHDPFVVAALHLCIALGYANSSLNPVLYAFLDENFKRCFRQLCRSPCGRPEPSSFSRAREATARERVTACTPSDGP
assayExplanation: Displacement of specific radioactive ligands, opiated delta receptor
runConditions: inhibition of 50% of radioligand bonds; read-out: CI50 affinity delta rec.
Note: state the figure and append the unit.

# compound, studyTarget, IC50
measured = [
    ("CCC(CC=Cc1ccccc1)(c1ccc(OC)cc1)N(C)C (stereo not shown)", "opiated delta receptor (Cavia porcellus)", "1.28 µM"),
    ("CCC(CC=Cc1ccc(Cl)c(Cl)c1)(c1ccc(C)cc1)N(C)C (stereo not shown)", "opiated delta receptor (Cavia porcellus)", "0.223 µM"),
    ("CCC(CC=Cc1ccc(Cl)c(Cl)c1)(c1ccc(OC)cc1)N(C)C (stereo not shown)", "opiated delta receptor (Cavia porcellus)", "0.26 µM"),
]

Now let's try a different one.
# query: IC50 of entry CCC(CC=Cc1ccccc1)(NC)c1ccc(Cl)cc1 (stereo not shown)
3.49 µM
